TARGET ENTITY: MERTK (UniProt Q12866)
Sequence (Q12866 whole entry, looked up): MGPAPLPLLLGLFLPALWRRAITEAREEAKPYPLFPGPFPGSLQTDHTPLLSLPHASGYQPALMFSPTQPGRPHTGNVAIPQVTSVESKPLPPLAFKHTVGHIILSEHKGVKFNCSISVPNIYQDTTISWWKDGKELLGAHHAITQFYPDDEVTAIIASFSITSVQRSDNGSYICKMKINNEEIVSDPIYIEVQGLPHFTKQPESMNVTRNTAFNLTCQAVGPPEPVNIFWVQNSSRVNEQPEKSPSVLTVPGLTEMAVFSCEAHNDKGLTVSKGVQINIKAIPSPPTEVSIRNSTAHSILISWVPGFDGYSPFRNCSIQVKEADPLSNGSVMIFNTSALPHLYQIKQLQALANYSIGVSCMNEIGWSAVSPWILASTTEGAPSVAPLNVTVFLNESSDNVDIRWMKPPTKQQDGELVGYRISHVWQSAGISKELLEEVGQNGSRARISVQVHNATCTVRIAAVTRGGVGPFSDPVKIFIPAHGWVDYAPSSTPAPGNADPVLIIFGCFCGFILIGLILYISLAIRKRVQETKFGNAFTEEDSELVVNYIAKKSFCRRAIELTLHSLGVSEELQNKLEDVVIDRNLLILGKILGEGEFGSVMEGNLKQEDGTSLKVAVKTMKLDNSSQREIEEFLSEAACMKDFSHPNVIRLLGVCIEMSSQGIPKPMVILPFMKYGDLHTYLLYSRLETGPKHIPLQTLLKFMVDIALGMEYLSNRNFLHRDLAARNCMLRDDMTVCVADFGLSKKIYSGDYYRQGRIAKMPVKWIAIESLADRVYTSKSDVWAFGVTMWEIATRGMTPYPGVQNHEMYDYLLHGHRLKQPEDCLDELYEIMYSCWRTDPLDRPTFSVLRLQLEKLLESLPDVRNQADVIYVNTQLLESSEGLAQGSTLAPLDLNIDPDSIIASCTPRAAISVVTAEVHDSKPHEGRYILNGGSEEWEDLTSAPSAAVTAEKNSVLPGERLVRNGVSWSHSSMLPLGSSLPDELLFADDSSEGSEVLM
PROCEDURE SUMMARY: phosphorylation enrichment, bacterial display (enrichment ratio); higher = better substrate or ligand; peptides without Tyr show the background;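 also: 11-residue human phosphosite peptides and single-mutation variants displayed on the E. coli surface, counted by deep sequencing, each peptide's frequency after selection divided by its frequency in the unselected input library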;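 also: frequency after pTyr selection over input frequency; kinase dosed for 20-30% of maximal phosphorylation in three min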
Assign condition met to entries whose phosphorylation enrichment meets or exceeds 0.5; assign condition not met to the rest.

KLIETYSSKNF [PLP1_Y50_F51S_YF]	condition not met
VGQRPYRPLPE [REEP3_Y170_Q171R]	condition not met
FEPDAYDDLDQ [ELP5_Y302_YF]	condition met
AKKKMYSHKTK [AGXT_Y231_R233H]	condition met
GAVGNYSGGLA [MGMT_Y158]	condition not met

Is the recorded value of phosphorylation enrichment equal to or greater than 0.5 for this sequence? LQIPMYEVQWK [KIT_Y553_K550I]
condition met

Is the recorded value of phosphorylation enrichment equal to or greater than 0.5 for this sequence? HNQDGYSYLSR [LDLR_Y845_P848L]
condition met

Is the recorded value of phosphorylation enrichment equal to or greater than 0.5 for this sequence? MKGDFYRSLAE [YWHAG_Y131_Y133S_YF]
condition not met

Is the recorded value of phosphorylation enrichment equal to or greater than 0.5 for this sequence? LFMGDYVGRGF [PPP2CA_Y86_D88G_YF]
condition not met

Is the recorded value of phosphorylation enrichment equal to or greater than 0.5 for this sequence? NYYDLYGGEKF [PTPN11_Y66_D61N]
condition met

Cited source for all entries: the supplement of paper PMC10065799
